Hi there, I'd appreciate the recorded log10 of IC50 for every entry that follows.
- Test system: MDA-MB-435
- ASSAY NAME: Antiproliferative activity against human MDA-MB-435 cells assessed as inhibition of cell growth incubated for 5 days by MTT assay
- Type: functional, cell-based
- CONDITION PARAMETERS: MDA-MB-435, 120 h
Heads up: the numbers are on a log10 scale; they represent IC50 in µM.

Sample records with log10 of IC50:
Input: Entry CC[n+]1c2c(C)nc(C(C)(C)C)cc2n2ccccc21 has what log10 of IC50?
Output: 1.96

Input: Quick one: log10 of IC50 of CCc1nc(C(C)(C)C)cc2c1[n+](Cc1ccccc1)c1ccccn21 ?
Output: 0.68

Record log10 of IC50 for all entries; do not skip any.
1. Cc1nc(-c2ccccc2)cc2c1[n+](Cc1ccccc1)c1ccccn21.[Br-]
2. CCc1nc(C2CC2)cc2c1[n+](Cc1ccccc1)c1ccc(Br)cn21
3. CC(C)(C)c1cc2c(c(-c3ccccc3)n1)[n+](Cc1ccccc1)c1ccc(Br)cn21
4. Cc1nc(C2CC2)cc2c1[n+](Cc1ccccc1)c1ccccn21
5. CC[n+]1c2c(OC)nc(C3CC3)cc2n2ccccc21
6. COc1nc(C2CC2)cc2c1[n+](Cc1ccccc1)c1ccccn21.[Br-]

Output:
1.35
1.79
0.72
1.64
0.80
0.11

Lab note: each compound below needs its log10 of IC50 filled in.
1. COc1nc(C(C)(C)C)cc2c1[n+](Cc1ccccc1)c1ccccn21.[Br-]
2. CCc1nc(C2CC2)cc2c1[n+](CC)c1ccccn21
3. CC(C)(C)c1cc2c(c(-c3ccccc3)n1)[n+](Cc1ccccc1)c1ccccn21

Output:
0.04
1.45
0.81

====

- System: MDA-MB-231
- ASSAY NAME: Induction of apoptosis in human MDA-MB-231 cells assessed as early apoptotic cells at 3 uM incubated for 48 hrs by annexin V-FITC/PI based flow cytometric analysis (reference value: 2.38 %)
- Assay type: functional
READOUT NAME: Activity (%)
Numbers only, in %.

Check out these entries, answers already filled in.
Input: Look up Activity with MDA-MB-231 for this compound: COc1nc(C2CC2)cc2c1[n+](Cc1ccccc1)c1ccccn21.[Br-]
Output: 3.5

Input: Find the measured Activity: item COc1nc(-c2ccccc2)cc2c1[n+](Cc1ccccc1)c1ccccn21.[Br-] , target or system MDA-MB-231.
Output: 4.11

Input: Form field - read-out: Activity; system: MDA-MB-231; submitted item: COc1nc(C(C)(C)C)cc2c1[n+](Cc1ccccc1)c1ccccn21.[Br-]
Output: 3.34

Consider the record given below.
Input: Provide the documented Activity with MDA-MB-231 as the system for Cc1nc(-c2ccccc2)cc2c1[n+](Cc1ccccc1)c1ccccn21.[Br-]
Output: 3.3

====

- Test system: MDA-MB-231
- ASSAY NAME: Induction of apoptosis in human MDA-MB-231 cells assessed as necrotic cells at 3 uM incubated for 48 hrs by annexin V-FITC/PI based flow cytometric analysis (reference value: 1.02 %)
- Type: functional
READOUT NAME: Activity (%)
Give bare numbers, in %.

Input: Please look up its Activity: COc1nc(C2CC2)cc2c1[n+](Cc1ccccc1)c1ccccn21.[Br-]
Output: 0.76

Input: Please give the measured Activity for this molecule: COc1nc(C(C)(C)C)cc2c1[n+](Cc1ccccc1)c1ccccn21.[Br-]
Output: 0.95

Input: Need Activity of COc1nc(-c2ccccc2)cc2c1[n+](Cc1ccccc1)c1ccccn21.[Br-] , thanks.
Output: 0.33

Consider the additional molecule presented here.
Input: Please give the measured Activity for this molecule: Cc1nc(-c2ccccc2)cc2c1[n+](Cc1ccccc1)c1ccccn21.[Br-]
Output: 0.47
